Recorded values, source ChEMBL document CHEMBL3808355.

Test system: Human immunodeficiency virus 1
Experiment: Antiviral activity against HIV-1 3B expressing reverse transcriptase K103N mutant infected in human MT4 cells assessed as inhibition of virus-induced cytopathic effect by MTT assay
Assay type: functional, organism-based
Conditions: Human immunodeficiency virus 1, 3B
pEC50: −log10 of the molar value.

# entrySmiles, pEC50
measured = [
    ("CO/N=C(\\F)c1cc(/C(=C\\CCCc2nnc(C)o2)c2cc(C)c3oc(=O)n(C)c3c2)cc(C)c1OC", 5.39),
    ("COc1c(C)cc(/C(=C\\CCCc2nnc(C)o2)c2cc(C)c3oc(=O)n(C)c3c2)cc1C(=O)SC", 6.37),
    ("CO/N=C(\\Cl)c1cc(/C(=C\\CCCc2nnc(C)o2)c2cc(C)c3oc(=O)n(C)c3c2)cc(C)c1OC", 5.11),
    ("Cc1ccnc2c1NC(=O)c1cccnc1N2C1CC1", 5.12),
    ("Cc1cc(C#N)cc(C)c1Oc1nc(Nc2ccc(C#N)cc2)nc(N)c1Br", 7.96),
]
